Biological target: D(1A) dopamine receptor (Homo sapiens)
Assay: HTS Assay for Allosteric Agonists of the Human D1 Dopamine Receptor: Primary Screen for Agonists (AID 488981); for activation: 0% is about no effect
Conditions: Inducible HEK293 T-REx D1 cells, calcium-flux fluorescence, 180 s kinetic; series mostly up to 41.8 µM
Procedure: Dopamine receptors (DARs) are involved in the etiology and/or therapy of a number of neuropsychiatric and endocrine disorders. […] Freshly passaged cells are plated in 1536 well black, clear bottom plates at a density of 4000 cells/well in 3 ul of complete media containing 1x tetracycline inducer. […] Following the 180 second read, 1 ul of an EC20 of dopamine is delivered by an onboard pipette head. […]
Records with an inconclusive call do not appear. The source made the active and inactive calls. Calls come from the whole dose curve; as a rule, active = well fitted activation curve with a large enough effect; inconclusive = small, poorly fitted or top-dose-only effect; inactive = flat fitted curve, though single readings scatter.
Please state which outcome applies, choosing from 1 (active), -1 (inactive)

Observe how each entry below is paired with its result.
# Compound, Assigned category
measured = [
    ("C[C@@H](NC(=O)/C(C#N)=C/c1ccc(O)c(O)c1)c1ccccc1", -1),
    ("CCCn1c(=O)c2[nH]c(-c3ccc(OCC(=O)NCCN)cc3)nc2n(CCC)c1=O", -1),
    ("CC(C)ON([C@@H](C(=O)NO)C(C)C)S(=O)(=O)c1ccc(-c2ccccc2)cc1", -1),
    ("OCC1O[C@H]([S-])[C@H](O)[C@@H](O)[C@@H]1O.[Au+] (stereo partly specified)", -1),
    ("Clc1ccc(N2CCN(Cc3cc4ccccn4n3)CC2)cc1", -1),
]

Please indicate how the test categorized O=C(O)CC[C@@H](C(=O)O)N1C(=O)c2ccccc2C1=O .
-1

Follow-up item: CNC(=O)[C@H]1O[C@@H](n2cnc3c(NCc4ccc(N)cc4)ncnc32)[C@H](O)[C@@H]1O
-1

Follow-up item: Oc1cc(O)cc(/C=C/c2ccc(O)c(O)c2)c1
-1

Follow-up item: Nc1ncnc2c1c(I)cn2[C@@H]1C[C@H](N)[C@@H](O)[C@H]1O
-1

Follow-up item: Nc1nc(Cl)nc2c1ncn2[C@@H]1O[C@H](COP(=O)(O)OP(=O)(O)OP(=O)(O)O)[C@@H](O)[C@H]1O
1

Follow-up item: CCCCCCCCCCCCCCCC(=O)OC(CC(=O)O)C[N+](C)(C)C (stereo unspecified)
1

Follow-up item: OC[C@H]1O[C@@H](n2cnc3c(NC4CCCCC4)ncnc32)[C@H](O)[C@@H]1O
-1

Follow-up item: NS(=O)(=O)C#Cc1ccccc1
-1

Follow-up item: c1cnc2c(c1)ccc1cccnc12
-1

Follow-up item: COc1ccccc1CNCCCCCCNCCCCCCCCNCCCCCCNCc1ccccc1OC
-1
